- experimentDescription: Preliminary pharmacokinetic study, plasma concentration by RP-HPLC-fluorescence
- Type: in vivo, C57BL/6 mice
- conditionInfo: Table S1, Study 1 mouse 1, dose given 0.2 mg i.p., 10 min
measure: Blood concentration, Cal. Conc.

// recorded Blood concentration, Cal. Conc. for COc1cc2ccc(=O)oc2cc1OC [Compound 39, scoparone] : 410 ng/mL

###

- studyTarget: Constitutive androstane receptor (CAR) (Homo sapiens)
- Construct: The pGL4-gtPBREM plasmid was transfected into Hep3B cells; endogenous in cells
- Sequence (Q14994 1-352): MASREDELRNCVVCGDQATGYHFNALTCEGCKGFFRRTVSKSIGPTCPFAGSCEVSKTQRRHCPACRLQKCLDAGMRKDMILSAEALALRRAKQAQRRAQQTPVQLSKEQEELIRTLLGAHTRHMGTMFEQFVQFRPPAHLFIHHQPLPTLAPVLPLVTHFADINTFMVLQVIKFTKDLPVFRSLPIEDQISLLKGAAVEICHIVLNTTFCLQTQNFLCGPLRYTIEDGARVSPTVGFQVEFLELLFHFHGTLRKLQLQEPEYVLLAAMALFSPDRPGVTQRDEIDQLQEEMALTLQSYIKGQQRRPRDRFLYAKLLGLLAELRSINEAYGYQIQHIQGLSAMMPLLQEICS
- experimentDescription: In vitro CAR activation screening assay (UGT1A1 promoter gtPBREM-pGL4 luciferase reporter in Hep3B-gtPBREM cells)
- Format: cell-based
- conditionInfo: Table 2; 10 μM; (luminescence of compound − luminescence of scoparone)/luminescence of scoparone × 100%; read-out: CAR Activation Fold
So basically: activation at 10 µM at -20% or higher? That is Met. Lower than -20%? That is Not met.

Known results for compounds:
>  <smilesData>
O=c1ccc2cc(O)c(O)cc2o1

>  <studyTarget>
Constitutive androstane receptor (CAR) (Homo sapiens)

>  <label>
Not met

$$$$
>  <smilesData>
CCCOc1cc2ccc(=O)oc2cc1OCCC

>  <studyTarget>
Constitutive androstane receptor (CAR) (Homo sapiens)

>  <label>
Not met

$$$$
>  <smilesData>
CCCCCOc1cc2ccc(=O)oc2cc1OCCCCC

>  <studyTarget>
Constitutive androstane receptor (CAR) (Homo sapiens)

>  <label>
Met

$$$$
>  <smilesData>
CC(C)=CCC/C(C)=C/COc1cc2ccc(=O)oc2cc1OC/C=C(\C)CCC=C(C)C

>  <studyTarget>
Constitutive androstane receptor (CAR) (Homo sapiens)

>  <label>
Not met

$$$$
>  <smilesData>
O=c1ccc2cc3c(cc2o1)OCCO3

>  <studyTarget>
Constitutive androstane receptor (CAR) (Homo sapiens)

>  <label>
Not met

$$$$

(Q) Is reported activation at 10 µM greater than or equal to -20% here: O=c1ccc2cc3c(cc2o1)OCO3
(A) Met

(Q) Does Cc1cc2ccc(=O)oc2cc1C have a reported activation at 10 µM of at least -20%?
(A) Met

(Q) Identify whether the reported activation at 10 µM of the following compound is -20% or greater: C=CCOc1cc2ccc(=O)oc2cc1OCC=C
(A) Met

(Q) Given the entry CC(=O)Oc1cc2ccc(=O)oc2cc1OC(C)=O , answer whether its activation at 10 µM meets or surpasses -20%.
(A) Met
